- procedure_details: NCI Yeast Anticancer Drug Screen. Data for the sgs1 mgt1 strain (AID 161);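 further: 0% = growth of cultures given vehicle only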
- cond: S. cerevisiae sgs1 mgt1 strain, at 50.0 µM
The panel holds about 79,000 compounds, 15% with a hit somewhere; the sample as a whole holds those more often. Activity calls are given as the source filed them. No stated cut-off is given here; in the data, active means growth inhibition above about 70%; inactive means the rest.
Classes used: active, inactive

compound	group_label
c1cncc(C(Nc2cccc3cccnc23)Nc2cccc3cccnc23)c1	inactive
O=C(O)[C@H]1[C@@H](C2CCCCC2)O[C@@H](C2CCCCC2)O[C@H]1C(F)(F)F	active
O=C1C=CC(=Nc2ccc3c(c2)Cc2cc(Cl)ccc2-3)O1	active
Cc1cnccc1N=Nc1ccc(N(C)C)cc1	inactive
O=S(=O)(O)c1ccc2c(N=Nc3c(O)ccc4ccccc34)cccc2c1	active
O=C(CSS(=O)(=O)O)c1ccccc1	inactive
CC(C)(C(=O)NN)c1ccccc1	inactive
CSc1ccc2c(c1)C(N1CCN(C)CC1)Cc1ccccc1S2 (configuration not stated)	active
CCN(CC)c1cccc(Nc2nc3ccccc3s2)c1	inactive
OCC(O)C(O)C(O)C(O)c1nc2ccccc2[nH]1 (configuration not stated)	inactive
CC[C@]1(O)C[C@H]2CN(CCc3c([nH]c4ccccc34)[C@@](C(=O)OC)(c3cc4c(cc3OC)N(C)[C@H]3[C@@](O)(C(=O)OC)[C@H](OC(C)=O)[C@]5(CC)C=CCN6CC[C@]43[C@@H]65)C2)C1	inactive
Nc1ccc2ncc(Nc3ccc(Cl)c(Cl)c3)nc2c1	active
CNC(=O)OCc1c(COC(=O)NC)c(C)n(-c2ccc(Cl)c(Cl)c2)c1C	active
COC(=O)C1(N2CCOCC2)CCC([C@@H](c2ccccc2)C(C)[N+](=O)[O-])C1 (some centres not stated)	inactive
C[Si](C)(C)Cc1ccccc1C(=O)O	active
Nc1ccc2cc(Br)c3ccccc3c2c1	active
O=C(Nc1ccn(C2CC(O)C(COC(c3ccccc3)(c3ccccc3)c3ccccc3)O2)c(=O)n1)c1ccccc1 (configuration not stated)	inactive
Cc1nc2ccc(NCCN(C)C)c3c(=O)c4ccccc4n1c23	inactive
O=C1OC(/C=C/c2ccccc2)Sc2ccccc21 (configuration not stated)	inactive
O=C(CCCN1CCC2(CC1)OC(=O)N(c1ccccc1)C2=O)c1ccccc1	active
O=C1c2ccccc2C2CCC1c1ccccc12 (configuration not stated)	inactive
Cc1cccc(N2CCN(C(=O)/C(=C/c3ccccc3)NC(=O)c3ccccc3)CC2)c1	inactive

----------
- procedure_details: NCI Yeast Anticancer Drug Screen. Data for the CLN2oe strain (AID 163);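 further: 0% = growth of vehicle-only control cultures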
- cond: S. cerevisiae CLN2oe strain, at 100.0 µM
This is part of a sample that, as a whole, favours compounds with a hit. Of some 79,000 tested, about 15% had one in any assay. Active and inactive are the calls of the source. Rule as the data show it: active = growth inhibition above about 70%; inactive = the rest. Starred links: 1 amine or outer side, 2 acyl side, 3 side chain; linkers in the order of their positions; H or OH if unused. Positions of bridges follow the written chain, without caps; N, C: chain ends. Non-standard residues stand in square brackets, D forms with d. Residues, ends and D or L forms follow the SMILES beside them. Chains are numbered I, II in the order given. Actinocin(9to1) = Cc1c2oc3c(C)ccc(C(=O)[*:1])c3nc-2c(C(=O)[*:2])c(N)c1=O; aThr = C[C@H](O)[C@H](N)C(=O)O; NMeV = CN[C@H](C(=O)O)C(C)C; Sar = CNCC(=O)O
Classes used: class 1 for active, class 0 for inactive

molecule	group_label
CCOc1ccccc1N1C(=O)CC(Sc2ccccc2N)C1=O (centres undefined)	class 0
CN(C)CCNC(=O)c1cccc2nc3c(ccc4ccccc43)nc12	class 1
COc1ccc2nc(N/N=C/c3sccc3C)cc(C)c2c1	class 1
Cc1c2oc3c(C)ccc(C(=O)N[C@@H]4C(=O)N[C@H](C(C)C)C(=O)N5CCC[C@H]5C(=O)N(C)CC(=O)N(C)[C@@H](C(C)C)C(=O)O[C@H]4C)c3nc-2c(C(=O)N[C@@H]2C(=O)N[C@H](C(C)C)C(=O)N3CCC[C@H]3C(=O)N(C)CC(=O)N(C)[C@@H](C(C)C)C(=O)O[C@H]2C)c(N)c1=O (I: [aThr][dV]P[Sar][NMeV] / II: [aThr][dV]P[Sar][NMeV]; ester I:1-I:C, II:1-II:C; linker I:N-II:N via Actinocin(9to1))	class 1
COC1=C(N=[N+]=[N-])C(=O)c2ncccc2C1=O	class 1
Cc1nc2ccccc2c(=O)n1NC(=O)c1ccc(CS)cc1	class 1
CN(Cc1cccc2ccccc12)Cc1cccc2ccccc12	class 0
Cc1cnc(/C=N\NC(N)=S)c2cccc(N)c12	class 0
COc1ccc2cc(CN3CCC(C4CCN(Cc5ccc6cc(OC)ccc6c5)CC4)CC3)ccc2c1	class 1
CCCCCCCCCC/C=C\CC(=O)O	class 1
CCOC(=O)/C=C1\CCCn2c1ncc(C(=O)OCC)c2=O	class 0
O=c1oc(C(C(F)(F)F)C(F)(F)F)nc2ccccc12	class 0
[O-]c1c2cc(-[n+]3c(-c4ccccc4)cc(-c4ccccc4)cc3-c3ccccc3)cc1COCCOCCOCCOCCOC2	class 1
O=S(=O)(Oc1c(Cl)cc(Cl)cc1Cl)c1ccccc1	class 0
Cn1c(COc2ccc(/C=N/NC(=O)CCC(=O)N/N=C/c3ccc(OCc4c[n+]5ccccc5n4C)cc3)cc2)c[n+]2ccccc12	class 1
CNc1ccc2[nH]c3ccccc3c2c1	class 0
CC(=O)c1ccc(NCN2C(=O)c3ccccc3C2=O)cc1	class 1
N=c1oc2ccccc2cc1-c1nc2ccccc2[nH]1	class 0
CCOC(=O)/C(O)=C(/C=N/C(=S)Nc1c(CC)cccc1CC)C(=O)OCC	class 0
